PROCEDURE_TEXT: qHTS of pediatric cancer cell lines to identify multiple opportunities for drug repurposing: Primary screen for SJ-GBM2 cells (AID 1347091)
ASSAY_CONDITIONS: SJ-GBM2 viability, CellTiter-Glo luminescence, 48 h; series mostly up to 46 µM
Inconclusive results are not listed. The source made the active and inactive calls. Calls come from the whole dose curve; as a rule, active = well fitted cell-killing curve with a large enough effect; inconclusive = small, poorly fitted or top-dose-only effect; inactive = no such curve, though single readings can be large or run the other way.
Your reply should match one of these outcome classes. class 1 for active, class 0 for inactive

QUERY: Just curious, what result did `OC[C@H]1O[C@@H](Oc2ccc(O)cc2)[C@H](O)[C@@H](O)[C@H]1O` get here?
RESULT: class 0

QUERY: Just curious, what result did `Cc1cc(-c2ncc(CC(=O)Nc3ccc(-c4cnccn4)cn3)cc2C)ccn1` get here?
RESULT: class 0

QUERY: Just curious, what result did COc1cccc(OC)c1-c1cc(C(=O)NC2(C(=O)O)C3CC4CC(C3)CC2C4)nn1-c1ccnc2cc(Cl)ccc12 (stereo not given) get here?
RESULT: class 1

QUERY: Just curious, what result did `CCc1cc(-c2n[nH]c(C)c2-c2ccc3c(c2)OCCO3)c(O)cc1O` get here?
RESULT: class 1

QUERY: Just curious, what result did CN1[C@H]2CC[C@H]1CC(OC(=O)c1c[nH]c3ccccc13)C2 (stereo not given in full) get here?
RESULT: class 0

QUERY: Just curious, what result did `CC(C)(C)c1nc(-c2cccc(NS(=O)(=O)c3c(F)cccc3F)c2F)c(-c2ccnc(N)n2)s1` get here?
RESULT: class 0

QUERY: Just curious, what result did `COc1c(C)c2c(c(O)c1CC=C(C)CCC(=O)OCCN1CCOCC1)C(=O)OC2` get here?
RESULT: class 0

QUERY: Just curious, what result did `C#CCN(C)CC1=Cc2ccccc2Oc2ccccc21` get here?
RESULT: class 0

QUERY: Just curious, what result did `COC(=O)Nc1ccc(-c2nc(N3CCOCC3)c3cnn(C4CCN(C(=O)OC)CC4)c3n2)cc1` get here?
RESULT: class 1

QUERY: Just curious, what result did `CNC(=O)c1cc(Oc2ccc(NC(=O)Nc3ccc(Cl)c(C(F)(F)F)c3)c(F)c2)ccn1` get here?
RESULT: class 1

QUERY: Just curious, what result did `COc1cc(Cl)cn2c(-c3cccc(NC4CNC4)n3)cnc12` get here?
RESULT: class 1

QUERY: Just curious, what result did `CC(C)(OCc1nn(Cc2ccccc2)c2ccccc12)C(=O)O` get here?
RESULT: class 0

QUERY: Just curious, what result did `O=C(c1ccc(C(=O)N2CCC(N3CCCC3)CC2)c(Nc2ccccc2)c1)N1CCC(N2CCCC2)CC1` get here?
RESULT: class 0

QUERY: Just curious, what result did `COc1ccc(-c2cc3nccn3c(Nc3ncccc3C(N)=O)n2)cc1OC` get here?
RESULT: class 1

QUERY: Just curious, what result did OC1CCC(Nc2ncc3nc(Nc4c(F)cc(F)cc4F)n([C@@H]4CCOC4)c3n2)CC1 (stereo not given in full) get here?
RESULT: class 1

Sourced from PubChem BioAssay (NCATS)
